assay.target: Streptokinase A (Streptococcus pyogenes serotype M1)
Sequence (P10520 whole entry): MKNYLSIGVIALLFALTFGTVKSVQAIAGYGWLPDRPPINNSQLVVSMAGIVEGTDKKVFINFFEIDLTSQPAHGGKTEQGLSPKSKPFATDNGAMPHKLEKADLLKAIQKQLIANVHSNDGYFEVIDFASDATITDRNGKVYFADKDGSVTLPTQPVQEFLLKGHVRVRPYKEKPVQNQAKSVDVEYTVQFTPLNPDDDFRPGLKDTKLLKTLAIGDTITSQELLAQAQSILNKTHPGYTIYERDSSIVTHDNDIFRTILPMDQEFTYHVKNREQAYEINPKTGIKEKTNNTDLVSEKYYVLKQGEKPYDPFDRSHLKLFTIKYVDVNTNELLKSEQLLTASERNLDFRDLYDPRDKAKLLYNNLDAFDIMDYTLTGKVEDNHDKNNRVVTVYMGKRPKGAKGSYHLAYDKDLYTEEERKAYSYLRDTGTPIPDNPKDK
measurement.description: viability-normalized secreted streptokinase activity reduction – plasminogen activation absorbance, OD405, dose response (AID 1914);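 note: secreted streptokinase activity via plasminogen activation per viability signal from cell pellet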
Format: functional, Streptococcus pyogenes M1 GAS
The source made the active and inactive calls. Cut-off read from the data, not from the text of the source: actives have a measured EC50 and inactives only a lower limit.
measured.metric: EC50

Solved entries (count: 5):
{"compound": "CCOc1cc(/C=C2/NC(=S)NC2=O)ccc1OCc1ccc([N+](=O)[O-])cc1", "EC50": "8.31 µM (active)"}
{"compound": "COc1ccc(C(=O)Nc2cccc(/C=C(\\CCC(=O)O)c3nc4ccccc4s3)c2)cc1", "EC50": "> 50 µM (not active)"}
{"compound": "Cn1nnnc1SCC(=O)Nc1nc(-c2ccccc2)c(-c2ccccc2)o1", "EC50": "> 150 µM (not active)"}
{"compound": "COc1ccc(/C=c2\\s/c(=C/C(=O)c3ccc(C)cc3)[nH]c2=O)cc1OC", "EC50": "> 150 µM (not active)"}
{"compound": "Cc1cc(S(=O)(=O)NCCC2=CCCCC2)ccc1Br", "EC50": "10.4 µM (active)"}

What is its EC50 for Streptokinase A (Streptococcus pyogenes serotype M1)? Entry: `COc1ccc(/C=C/C(=O)NC(=S)NNC(=O)[C@H]2C[C@@H]2c2ccccc2)cc1OC`
> 150 µM (not active)

# iterate: `CCCCn1c(NS(=O)(=O)c2ccccc2)c(S(=O)(=O)c2ccc(C)cc2)c2nc3ccccc3nc21`
18.2 µM (active)

# iterate: O=C(CSc1nnc(NC(=O)c2ccccc2)s1)NCC1CCCO1 (centres undefined)
> 150 µM (not active)

# iterate: `CC(C)(C)CC(=O)N1CCC(c2nc(O)c3nnn(Cc4c(F)cccc4Cl)c3n2)CC1`
> 150 µM (not active)

# iterate: `O=[N+]([O-])c1ccc(NC(S)=NCCc2ccc(Cl)cc2)cc1`
18.9 µM (active)
